- study.target: human dipeptidyl peptidase-4 (DPP-4) (Homo sapiens)
- Sequence (P27487 39-766): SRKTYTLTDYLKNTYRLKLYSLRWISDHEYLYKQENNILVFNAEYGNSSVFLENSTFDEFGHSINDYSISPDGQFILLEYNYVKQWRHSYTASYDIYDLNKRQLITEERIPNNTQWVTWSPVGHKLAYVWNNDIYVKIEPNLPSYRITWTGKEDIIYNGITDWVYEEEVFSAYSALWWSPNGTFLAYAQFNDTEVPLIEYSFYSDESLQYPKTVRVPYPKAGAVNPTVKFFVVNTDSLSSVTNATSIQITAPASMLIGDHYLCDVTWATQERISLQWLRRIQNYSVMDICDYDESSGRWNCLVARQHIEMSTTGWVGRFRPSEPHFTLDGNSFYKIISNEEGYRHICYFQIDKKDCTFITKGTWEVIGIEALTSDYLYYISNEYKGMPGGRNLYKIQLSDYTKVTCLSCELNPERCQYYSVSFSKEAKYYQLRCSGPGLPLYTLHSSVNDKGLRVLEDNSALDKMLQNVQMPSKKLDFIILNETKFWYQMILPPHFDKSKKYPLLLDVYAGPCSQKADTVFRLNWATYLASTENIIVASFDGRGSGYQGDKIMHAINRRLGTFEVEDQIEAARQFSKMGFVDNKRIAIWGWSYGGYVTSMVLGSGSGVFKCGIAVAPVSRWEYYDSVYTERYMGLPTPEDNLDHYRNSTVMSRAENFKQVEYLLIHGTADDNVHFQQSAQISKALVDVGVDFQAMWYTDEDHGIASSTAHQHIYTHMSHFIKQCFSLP
measured.attribute: IC50 (µM)
Kindly answer with a numeric value in µM, unit omitted.

GET /values?readout=IC50&item= CN1C(C(=O)Nc2ccccn2)=C(O)c2ccccc2S1(=O)=O [piroxicam] 9.9
